The origin of these recorded values is patent US4146631A.

Tested on: passive cutaneous anaphylactic (PCA) reaction
run.description: Passive cutaneous anaphylactic (PCA) reaction, reagin-allergen combination, in rats
Type: in vivo
setup.conditions: Rattus norvegicus, oral, thirty minutes before intravenous allergen, read-out: ED50 (oral dose which produces 50% inhibition of the PCA reaction)
readout.name: ED50 (mg/kg)
One number for each entry, in mg/kg.

{"smiles.repr": "Cc1cc(C=O)c(O)c(C(=O)Nc2nnn[nH]2)c1", "system.under.test": "passive cutaneous anaphylactic (PCA) reaction", "ED50 / mg/kg": 5.4}
{"smiles.repr": "CCCC(=O)c1cc(CC)cc(C(=O)Nc2nnn[nH]2)c1O", "system.under.test": "passive cutaneous anaphylactic (PCA) reaction", "ED50 / mg/kg": 2.2}
{"smiles.repr": "CCOc1cccc(C(=O)Nc2nnn[nH]2)c1O", "system.under.test": "passive cutaneous anaphylactic (PCA) reaction", "ED50 / mg/kg": 10}
{"smiles.repr": "N#Cc1cccc(C(=O)Nc2nnn[nH]2)c1O", "system.under.test": "passive cutaneous anaphylactic (PCA) reaction", "ED50 / mg/kg": 37}
{"smiles.repr": "O=C(Nc1nnn[nH]1)c1cccc(Cl)c1O", "system.under.test": "passive cutaneous anaphylactic (PCA) reaction", "ED50 / mg/kg": 85}

Hi, could you look up ED50 for each item in my list?
1. N#Cc1ccc(O)c(C(=O)Nc2nnn[nH]2)c1
2. CN(C)c1cccc(C(=O)Nc2nnn[nH]2)c1O
3. O=C(O)c1cccc(C(=O)Nc2nn[nH]n2)c1O
4. O=C(Nc1nnn[nH]1)c1cccc(Br)c1O
5. O=Cc1cccc(C(=O)Nc2nnn[nH]2)c1O
6. CCc1cc(C(C)=O)c(O)c(C(=O)Nc2nnn[nH]2)c1
7. O=C(Nc1nnn[nH]1)c1cc(F)ccc1O
8. CCC(=O)c1cc(C)cc(C(=O)Nc2nnn[nH]2)c1O

1. 50
2. 26
3. 20
4. 55
5. 5.3
6. 0.1
7. 16
8. 0.4

* * *

System: passive cutaneous anaphylactic (PCA) reaction
run.description: Passive cutaneous anaphylactic (PCA) reaction, reagin-allergen combination, in rats
Format: in vivo
setup.conditions: Rattus norvegicus, oral dose of 100 mg/kg, thirty minutes before intravenous allergen
We use 40% as the dividing line for inhibition in vivo at 100 mg/kg: on or above the line is met, below is not met.

Worked cases, answers included:
{"compound": "CCCc1cc(C(C)=O)c(O)c(C(=O)Nc2nnn[nH]2)c1", "class": "met"}
{"compound": "CC(=O)Nc1ccc(C(=O)Nc2nnn[nH]2)c(O)c1", "class": "not met"}
{"compound": "CCOc1cccc(C(=O)Nc2nnn[nH]2)c1O", "class": "met"}
{"compound": "CCC(C)c1cc(C(C)=O)c(O)c(C(=O)Nc2nnn[nH]2)c1 (stereo not drawn)", "class": "met"}
{"compound": "CC(=O)c1cc(C)cc(C(=O)Nc2nnn[nH]2)c1O", "class": "met"}

Threshold query (inhibition in vivo at 100 mg/kg >= 40%) on O=C(Nc1nnn[nH]1)c1cc(F)ccc1O
met

* * *

run.description: Acute intravenous toxicity in mice
setup.conditions: mouse, in vivo, triethanolamine salt (T), 1% w/v test solution
readout.name: LD50 (mg/kg)
Answers are plain numbers, in mg/kg.

What does the data say about its LD50? Entry: O=C(Nc1nnn[nH]1)c1cc(-c2ccccc2)ccc1O [BG]
200
